Molecular target: FAAH in human bladder epithelial cancer-derived cell line 5678 cells (Homo sapiens, UniProt O00519)
Construct: host or cells: human bladder epithelial cancer-derived cell line ('5678' [sic], HTB-9)
Sequence (O00519 1-579): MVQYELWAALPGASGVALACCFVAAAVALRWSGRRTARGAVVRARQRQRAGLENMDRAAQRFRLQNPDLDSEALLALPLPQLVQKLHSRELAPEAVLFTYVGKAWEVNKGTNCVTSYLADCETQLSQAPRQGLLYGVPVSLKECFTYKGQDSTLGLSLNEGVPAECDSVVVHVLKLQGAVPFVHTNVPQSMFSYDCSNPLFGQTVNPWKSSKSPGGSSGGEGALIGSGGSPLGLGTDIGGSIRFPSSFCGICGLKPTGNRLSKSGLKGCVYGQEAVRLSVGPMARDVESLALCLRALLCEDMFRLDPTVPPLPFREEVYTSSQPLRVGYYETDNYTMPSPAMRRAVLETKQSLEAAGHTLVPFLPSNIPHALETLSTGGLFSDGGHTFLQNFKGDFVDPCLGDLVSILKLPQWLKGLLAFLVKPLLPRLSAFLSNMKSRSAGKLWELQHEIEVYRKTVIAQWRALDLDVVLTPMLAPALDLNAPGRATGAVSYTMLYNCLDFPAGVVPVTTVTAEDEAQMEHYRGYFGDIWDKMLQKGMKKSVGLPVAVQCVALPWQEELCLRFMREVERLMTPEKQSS
Assay: Screening for FAAH activity-inhibiting substance with human bladder epithelial cancer-derived cell (IC50, Table 64)
Assay type: cell-based
Can you tell me log10 IC50 for the items I'm about to list?
Heads up: the numbers are on a log10 scale; they represent IC50 in nM.

| smiles_code | log10 IC50 |
| --- | --- |
| O=C(O)c1cncc(OC(=O)N2CCC(Oc3ccc(OCCC4CCCCC4)cc3)CC2)c1 | -0.66 |

Need log10 IC50 for each of these compounds.
1. N#Cc1ccc(-c2ccc(CCC3CCN(C(=O)Oc4cncc(C(N)=O)c4)CC3)cc2)cc1
2. O=C(Oc1cccnc1)N1CCN(C(=O)c2cccc(OCc3cccc(Cl)c3)c2)CC1
3. N#Cc1ccc(-c2ccc(CCC3CCN(C(=O)Oc4cncc(C(=O)O)c4)CC3)cc2)cc1
4. O=C(O)c1cncc(OC(=O)N2CCC(CCc3ccc(-c4cccc(F)c4)cc3)CC2)c1
5. N#Cc1cccc(COc2ccc(C(=O)N3CCN(C(=O)Oc4cccnc4)CC3)cc2)c1
6. Cc1cccc(N2CCC(CCCC3CCN(C(=O)Oc4cncc(C(N)=O)c4)CC3)CC2)n1
7. O=C(O)c1cncc(OC(=O)N2CCC(Oc3ccc(OCc4cccc(F)c4)cc3)CC2)c1

Reply:
1: -0.89; 2: -1.11; 3: -0.40; 4: -0.77; 5: -0.77; 6: -0.70; 7: -0.36

# batch: return log10 IC50 for each of the 5 compounds below
1. O=C(Oc1cccnc1)N1CCN(C(=O)c2ccc(OCc3ccc(F)cc3)cc2)CC1
2. CCCCCCCCc1ccc(NC(=O)C2CCN(C(=O)Oc3cccnc3)CC2)cc1
3. O=C(Oc1cncc(Cl)c1)N1CCC(Oc2ccc(OCc3cccc(F)c3)cc2)CC1
4. NC(=O)c1cncc(OC(=O)N2CCC(CCc3cccc(-c4ccccn4)c3)CC2)c1
5. O=C(O)c1cncc(OC(=O)N2CCC(CCCC3CCN(c4ccc5ccccc5n4)CC3)CC2)c1

Reply:
[-1.21, -0.08, -0.37, -1.27, -0.29]

// input: 5 compounds below; output: log10 IC50 for each
1. O=C(Oc1cccnc1)N1CCC(Oc2ccc(OCc3ccccc3)c(Cl)c2)CC1
2. O=C(Oc1cccnc1)N1CCC(S(=O)(=O)c2ccc(OCc3ccccc3)cc2)CC1
3. N#Cc1cccc(-c2cccc(CCC3CCN(C(=O)Oc4cncc(C(N)=O)c4)CC3)c2)c1
4. NC(=O)c1cncc(OC(=O)N2CCC(CCc3ccc(-c4ccccc4F)cc3)CC2)c1
5. CCN(CC)C(=O)c1ccc(CCC2CCN(C(=O)Oc3cncc(C(N)=O)c3)CC2)cc1

Reply:
1. -1.00
2. -0.43
3. -1.11
4. -0.57
5. -0.38

Each of the following entries comes with a recorded value; kindly state log10 IC50 for each.
1. O=C(Oc1cccnc1)N1CCN(C(=O)c2ccc(OCc3cc(F)cc(F)c3)cc2)CC1
2. COc1ccc(-c2ccc(CCC3CCN(C(=O)Oc4cncc(C(=O)O)c4)CC3)cc2)cc1
3. O=C(O)c1cncc(OC(=O)N2CCC(CCc3ccc(-c4ccccc4F)cc3)CC2)c1

Reply:
[-0.74, -0.37, -0.62]

====

# pIC50 measurements, system: FAAH (rat brain homogenate) (Rattus norvegicus)
# Sequence (P97612 whole entry): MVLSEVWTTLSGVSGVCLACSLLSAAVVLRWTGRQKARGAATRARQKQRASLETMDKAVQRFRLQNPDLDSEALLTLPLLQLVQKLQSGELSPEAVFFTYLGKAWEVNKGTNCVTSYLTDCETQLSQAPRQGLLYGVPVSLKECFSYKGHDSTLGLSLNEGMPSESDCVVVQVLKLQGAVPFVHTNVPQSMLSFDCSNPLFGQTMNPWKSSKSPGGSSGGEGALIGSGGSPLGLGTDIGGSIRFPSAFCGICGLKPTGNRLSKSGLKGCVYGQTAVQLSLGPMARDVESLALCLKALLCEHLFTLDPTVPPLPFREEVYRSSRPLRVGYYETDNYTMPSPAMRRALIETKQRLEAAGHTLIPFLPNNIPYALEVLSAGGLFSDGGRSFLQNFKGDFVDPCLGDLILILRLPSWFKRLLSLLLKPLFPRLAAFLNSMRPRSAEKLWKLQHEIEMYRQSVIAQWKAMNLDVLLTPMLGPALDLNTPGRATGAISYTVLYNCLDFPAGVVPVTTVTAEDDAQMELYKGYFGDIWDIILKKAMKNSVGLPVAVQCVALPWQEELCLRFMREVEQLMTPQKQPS
One number for each entry, as −log10 of the molar value.

| smiles_code | measured_result |
| --- | --- |
| N#Cc1cccc(COc2ccc(C(=O)N3CCN(C(=O)Oc4cccnc4)CC3)cc2)c1 | 7.57 |
| O=C(O)c1cncc(OC(=O)N2CCC(Oc3ccc(OCCC4CCCCC4)cc3)CC2)c1 | 9.72 |
| O=C(Oc1cccnc1)N1CCC(Oc2ccc(OCc3cccc(F)c3)cc2)CC1 | 9.85 |

# next molecule below
Short answer on FAAH (rat brain homogenate) (Rattus norvegicus) for `NC(=O)c1cncc(OC(=O)N2CCC(CCc3cccc(C(=O)N4CCCC4)c3)CC2)c1` , pIC50: 8.89

This collection of values is drawn from patent US7919495B2.
